# tgt: Prothrombin (Homo sapiens, UniProt P00734)
# protocol details: The compound was tested for inhibition of thrombin with a pre-incubation time of 15 min.
parameter measured: IC50

**Query** Which measured IC50 value corresponds to C=CC[C@H]1C(=O)N(S(=O)(=O)c2cccc3ccccc23)[C@H]2CCN(C(=O)OCc3ccccc3)C12 (some centres undefined) ?
**Result** > 100 µM

**Query** Now the same for "C=CC[C@H]1C(=O)N(S(C)(=O)=O)[C@H]2CCN(C(=O)OCc3ccccc3)[C@H]12"
**Result** 53.2 µM

***
**Query** Which measured IC50 value corresponds to "C=CC[C@H]1C(=O)N[C@H]2CCN(C(=O)OCc3ccccc3)[C@@H]21" ?
**Result** > 100 µM

**Query** Now the same for C=CC[C@H]1C(=O)O[C@H]2CCN(C(=O)OCC)C21 (some centres undefined)
**Result** > 200 µM
